tested on: Staphylococcus epidermidis; assay: Antibacterial activity against methicillin-resistant Staphylococcus epidermidis OC5340 by broth microdilution method; assay type: functional
Let's look at some compounds and their measured MIC.
Could you give the number and then its unit, please?

Lookup: Fill in MIC for record NCC(Cl)=C1CCN(c2c(F)cc3c(=O)c(C(=O)O)cn(C4CC4)c3c2OC(F)F)CC1
Found: 0.5 µg/mL

Lookup: Fill in MIC for record O=C(O)c1cn(C2CC2)c2cc(N3CCNCC3)c(F)cc2c1=O
Found: 8 µg/mL

Lookup: Fill in MIC for record CNCC(Cl)=C1CCN(c2c(F)cc3c(=O)c(C(=O)O)cn(C4CC4)c3c2OC)CC1
Found: 0.5 µg/mL

Lookup: Fill in MIC for record COc1c(N2CCC(=C(Cl)CN)CC2)c(F)cc2c(=O)c(C(=O)O)cn(C3CC3)c12
Found: 0.25 µg/mL
